Each item that follows carries a reported Active Dose (inhibition of apomorphine induced climbing).
system: Dopamine Receptor; assay: Inhibition of apomorphine induced climbing in the mouse (dopamine receptor blocking activity in the central nervous system); assay type: in vivo; settings: p.o., apomorphine 1 mg/kg s.c., not necessarily the lowest active dose
// return numeric value only (unit: mg/kg, not printed)

Query :: Give Dopamine Receptor Active Dose (inhibition of apomorphine induced climbing) for COc1cc(N)c(Cl)cc1C(=O)N[C@@H]1C[C@H]2COC[C@@H](C1)N2Cc1cccc(C(F)(F)F)c1
Result :: 50

Query :: Give Dopamine Receptor Active Dose (inhibition of apomorphine induced climbing) for COc1cc(N)c(Cl)cc1C(=O)N[C@@H]1C[C@H]2COC[C@@H](C1)N2Cc1ccc(C)cc1
Result :: 10

Query :: Give Dopamine Receptor Active Dose (inhibition of apomorphine induced climbing) for COc1cc(N)c(Cl)cc1C(=O)N[C@@H]1C[C@H]2COC[C@@H](C1)N2Cc1ccc(Cl)c(Cl)c1
Result :: 10

Query :: Give Dopamine Receptor Active Dose (inhibition of apomorphine induced climbing) for COc1cc(N)c(Cl)cc1C(=O)N[C@@H]1C[C@H]2COC[C@@H](C1)N2CC1CCCCC1
Result :: 10

Query :: Give Dopamine Receptor Active Dose (inhibition of apomorphine induced climbing) for COc1cccc(C(=O)N[C@@H]2C[C@H]3COC[C@@H](C2)N3Cc2ccccc2)c1OC
Result :: 2

Query :: Give Dopamine Receptor Active Dose (inhibition of apomorphine induced climbing) for COc1cc(N)c(Cl)cc1C(=O)N[C@@H]1C[C@H]2COC[C@@H](C1)N2Cc1cccs1
Result :: 10

Query :: Give Dopamine Receptor Active Dose (inhibition of apomorphine induced climbing) for COc1cc(N)c(Cl)cc1C(=O)N[C@@H]1C[C@H]2COC[C@@H](C1)N2CCC(C)C
Result :: 10

Query :: Give Dopamine Receptor Active Dose (inhibition of apomorphine induced climbing) for COc1cc(N)c(Cl)cc1C(=O)N[C@@H]1C[C@H]2COC[C@@H](C1)N2Cc1ccccc1
Result :: 1
